Procedure details: Drug uptake in BALB/c mouse plasma at 20 mg/kg, po as 50% cyclodextrin formulation measured after 3 hrs by LC-MS method
Format: ADME, organism-based
Quantity kind: concentration at 3 h
Answer shape: numeric part, then the unit.

Consider the compound COc1cccc(/C=C/C(=O)c2cc(OC)c(OC)cc2O)c1 and give its measured concentration at 3 h. 10 nM

###

Procedure details: Cytotoxicity against human […] cells assessed as cell growth by Cell titer-Glo assay
Format: cell-based
Settings: WI-38 cells
Quantity kind: GI50
Answer shape: numeric part, then the unit.

Consider the molecule COc1cccc(/C=C/C(=O)c2cc(OC)c(OC)cc2O)c1 and give its measured GI50. 10.8 µM

###

Collected selectivity ratio values appear next to each entry.
Procedure details: Selectivity index, ratio of CC50 for human THP1 cells to EC50 for anti-parasitic activity against bloodstream form of Trypanosoma brucei brucei Lister 427
Assay type: toxicity
Settings: THP-1 cells, read-out: Ratio CC50/EC50
Write the number on its own, no unit after it.

Below, 3 compounds whose answers are already recorded.
{"Query smiles": "COc1ccc(-c2oc3cc(OC)ccc3c(=O)c2O)cc1", "selectivity ratio": 9}
{"Query smiles": "COc1ccc2c(=O)c(O)c(-c3cc(OC)c(OC)c(OC)c3)oc2c1", "selectivity ratio": 17}
{"Query smiles": "COc1ccc2oc(-c3ccc(OC)c(OC)c3)c(O)c(=O)c2c1", "selectivity ratio": 5}

Consider the compound COc1cccc(-c2oc3cc(OC)ccc3c(=O)c2O)c1 and give its measured selectivity ratio. 8

Consider the compound COc1ccc2c(=O)c(O)c(-c3ccc(OC)c(OC)c3)oc2c1 and give its measured selectivity ratio. 8

Consider the compound COc1cccc(-c2oc3ccc(OC)cc3c(=O)c2O)c1 and give its measured selectivity ratio. 10

Consider the compound COc1ccc(-c2oc3ccc(OC)cc3c(=O)c2O)cc1 and give its measured selectivity ratio. 1

Consider the compound COc1cccc(-c2oc3ccccc3c(=O)c2O)c1 and give its measured selectivity ratio. 4

###

Collected inhibition at 10 µM values appear next to each entry.
Target system: CYP2C9 (Homo sapiens, UniProt P11712)
Sequence (P11712 whole entry): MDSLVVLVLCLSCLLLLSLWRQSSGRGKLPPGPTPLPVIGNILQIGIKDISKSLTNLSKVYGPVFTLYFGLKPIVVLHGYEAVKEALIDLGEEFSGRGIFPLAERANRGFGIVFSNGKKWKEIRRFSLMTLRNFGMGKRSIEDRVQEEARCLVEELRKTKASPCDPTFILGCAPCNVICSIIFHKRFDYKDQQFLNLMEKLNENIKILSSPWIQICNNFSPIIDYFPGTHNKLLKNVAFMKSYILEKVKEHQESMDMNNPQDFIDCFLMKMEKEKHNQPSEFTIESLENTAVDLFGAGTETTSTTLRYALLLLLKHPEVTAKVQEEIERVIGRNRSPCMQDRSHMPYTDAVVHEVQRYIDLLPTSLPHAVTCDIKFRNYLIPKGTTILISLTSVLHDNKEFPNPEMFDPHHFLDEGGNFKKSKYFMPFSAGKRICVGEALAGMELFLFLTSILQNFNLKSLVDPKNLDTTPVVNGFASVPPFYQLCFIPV
Procedure details: Inhibition of human CYP2C9 expressed in baculovirus-infected insect cells at 10 uM using Luciferin-H as substrate in presence of NADPH by P450-Glo luminescence assay relative to control
Settings: probe Luciferin-H
Respond with the bare value in %.

Below, 5 compounds whose answers are already recorded.
{"Query smiles": "COc1cccc(/C=C/C(=O)c2cc(OC)ccc2O)c1", "Result unit": "%", "Reported": -31.7}
{"Query smiles": "COc1cc(O)c(C(=O)/C=C/c2cc(OC)c(OC)c(OC)c2)cc1OC", "Result unit": "%", "Reported": 27}
{"Query smiles": "COc1ccc(C(=O)/C=C/c2cc(OC)c(OC)c(OC)c2)c(O)c1", "Result unit": "%", "Reported": 57.6}
{"Query smiles": "COc1cccc(/C=C/C(=O)c2ccc(OC)cc2O)c1", "Result unit": "%", "Reported": 47.4}
{"Query smiles": "COc1ccc(O)c(C(=O)/C=C/c2cc(OC)c(OC)c(OC)c2)c1", "Result unit": "%", "Reported": 60.9}

Consider the compound COc1ccc(/C=C/C(=O)c2cc(OC)ccc2O)cc1 and give its measured inhibition at 10 µM. 25.8

Consider the compound COc1ccc(O)c(C(=O)/C=C/c2c(OC)cccc2OC)c1 and give its measured inhibition at 10 µM. 36.9

Consider the compound COc1ccc(/C=C/C(=O)c2ccc(OC)cc2O)cc1 and give its measured inhibition at 10 µM. 21.7

Consider the compound COc1ccc(O)c(C(=O)/C=C/c2ccc(OC)c(OC)c2)c1 and give its measured inhibition at 10 µM. -26.9

Consider the compound COc1cccc(/C=C/C(=O)c2ccccc2O)c1 and give its measured inhibition at 10 µM. 17.1

Consider the compound COc1ccc(C(=O)/C=C/c2ccc(OC)c(OC)c2)c(O)c1 and give its measured inhibition at 10 µM. 10.7

Consider the compound COc1cccc(/C=C/C(=O)c2cc(OC)c(OC)cc2O)c1 and give its measured inhibition at 10 µM. 19

Consider the compound COc1ccc(C(=O)/C=C/c2c(OC)cccc2OC)c(O)c1 and give its measured inhibition at 10 µM. -25.6

###

Target system: Cytochrome P450 2D6 (Homo sapiens, UniProt P10635)
Sequence (P10635 whole entry): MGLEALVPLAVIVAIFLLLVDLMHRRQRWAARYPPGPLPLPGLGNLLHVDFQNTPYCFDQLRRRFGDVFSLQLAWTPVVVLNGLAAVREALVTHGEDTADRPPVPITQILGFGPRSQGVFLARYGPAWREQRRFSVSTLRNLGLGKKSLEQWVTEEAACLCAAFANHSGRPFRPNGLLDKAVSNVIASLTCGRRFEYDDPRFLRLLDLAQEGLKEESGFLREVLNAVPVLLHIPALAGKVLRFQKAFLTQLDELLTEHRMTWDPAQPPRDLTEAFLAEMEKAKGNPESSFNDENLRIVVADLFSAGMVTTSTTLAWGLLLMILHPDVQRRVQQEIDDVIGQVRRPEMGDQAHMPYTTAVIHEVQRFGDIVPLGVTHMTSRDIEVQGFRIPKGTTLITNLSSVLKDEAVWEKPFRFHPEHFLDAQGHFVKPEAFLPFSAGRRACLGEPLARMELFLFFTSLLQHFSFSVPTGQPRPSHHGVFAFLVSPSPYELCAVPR
Quantity kind: IC50 (µM)
Respond with the bare value in µM.

Consider the compound N=C(N)c1ccc(OCCCCCOc2ccc(C(=N)N)cc2)cc1 and give its measured IC50. 24.8

###

Procedure details: Solubility of the compound in phosphate buffered saline measured after 18 hrs by UV-vis spectroscopic method
Assay type: physicochemical
Quantity kind: solubility at 18 h

Consider the molecule COc1cccc(/C=C/C(=O)c2cc(OC)c(OC)cc2O)c1 and give its measured solubility at 18 h. 2.37 µM

###

Procedure details: Drug uptake in BALB/c mouse plasma at 20 mg/kg, po measured after 0.25 hrs by LC-MS method
Format: ADME, organism-based
Quantity kind: concentration at 0.25 h (nM)
Respond with the bare value in nM.

Consider the compound COc1cccc(/C=C/C(=O)c2cc(OC)c(OC)cc2O)c1 and give its measured concentration at 0.25 h. 270

###

Procedure details: Cytotoxicity against human A549 cells assessed as cell growth by Cell titer-Glo assay
Type: cell-based
Quantity kind: GI50 (µM)
Respond with the bare value in µM.

Consider the compound COc1cccc(/C=C/C(=O)c2cc(OC)c(OC)cc2O)c1 and give its measured GI50. 12.4

###

Procedure details: Drug uptake in BALB/c mouse plasma at 1 mg/kg, iv measured after 30 mins by LC-MS method
Type: ADME, organism-based
Quantity kind: concentration at 0.5 h (nM)
Respond with the bare value in nM.

Consider the compound COc1cccc(/C=C/C(=O)c2cc(OC)c(OC)cc2O)c1 and give its measured concentration at 0.5 h. 55

###

Procedure details: Half-life in BALB/c mouse at 1 mg/kg, iv by LC-MS method
Assay type: ADME, organism-based
Settings: in vivo
Quantity kind: half-life (h)
Respond with the bare value in h.

Consider the compound COc1cccc(/C=C/C(=O)c2cc(OC)c(OC)cc2O)c1 and give its measured half-life. 1.04

###

Collected viability at 10 µM values appear next to each entry.
Procedure details: Cytotoxicity against human A549 cells assessed as cell growth at 10 uM by Cell titer-Glo assay relative to control
Assay type: cell-based
Settings: read-out: Activity
Respond with the bare value in %.

{"Query smiles": "COc1ccc(/C=C/C(=O)c2ccc(OC)cc2O)cc1", "Result unit": "%", "viability at 10 µM": 102}

// below: viability at 10 µM requested for another compound
Consider the compound COc1cccc(/C=C/C(=O)c2cc(OC)c(OC)cc2O)c1 and give its measured viability at 10 µM. 95.5

###

Procedure details: Drug uptake in BALB/c mouse plasma at 1 mg/kg, iv measured after 15 mins by LC-MS method
Type: ADME, organism-based
Quantity kind: concentration at 0.25 h (nM)
Respond with the bare value in nM.

Consider the compound COc1cccc(/C=C/C(=O)c2cc(OC)c(OC)cc2O)c1 and give its measured concentration at 0.25 h. 74

###

Procedure details: Drug uptake in BALB/c mouse plasma at 20 mg/kg, po as cyclodextrin/PEG400 formulation measured after 3 hrs by LC-MS method
Type: ADME, organism-based
Quantity kind: concentration at 3 h (nM)
Respond with the bare value in nM.

Consider the compound COc1cccc(/C=C/C(=O)c2cc(OC)c(OC)cc2O)c1 and give its measured concentration at 3 h. 6

###

Procedure details: Mitochondrial toxicity in human 786-O cells by mitotracker red chloromethyl-Xrosamine staining based-uptake method
Type: cell-based, 786-0
Quantity kind: IC50 (µM)
Respond with the bare value in µM.

Consider the compound COc1cccc(/C=C/C(=O)c2cc(OC)c(OC)cc2O)c1 and give its measured IC50. 14.5

###

Procedure details: Drug uptake in BALB/c mouse plasma at 20 mg/kg, po as cyclodextrin/PEG400 formulation measured after 0.25 hrs by LC-MS method
Format: ADME, organism-based
Quantity kind: concentration at 0.25 h (nM)
Respond with the bare value in nM.

Consider the compound COc1cccc(/C=C/C(=O)c2cc(OC)c(OC)cc2O)c1 and give its measured concentration at 0.25 h. 48

###

Tested on: Trypanosoma brucei
Procedure details: Anti-parasitic activity against Trypanosoma brucei 427
Assay type: functional
Quantity kind: pEC50
Field pEC50 (float): negative decimal logarithm of the concentration in molar.

Consider the molecule COc1cc(O)c(C(=O)/C=C/c2ccccc2)c(OC)c1 and give its measured pEC50. 5.21

###

Procedure details: Drug uptake in BALB/c mouse plasma at 20 mg/kg, po as 50%% cyclodextrin formulation measured after 0.75 hrs by LC-MS method
Format: ADME, organism-based
Quantity kind: concentration at 0.75 h (nM)
Respond with the bare value in nM.

Consider the compound COc1cccc(/C=C/C(=O)c2cc(OC)c(OC)cc2O)c1 and give its measured concentration at 0.75 h. 164

###

Procedure details: Drug uptake in BALB/c mouse plasma at 20 mg/kg, po as 50% cyclodextrin formulation measured after 1 hr by LC-MS method
Assay type: ADME, organism-based
Quantity kind: concentration at 1 h (nM)
Respond with the bare value in nM.

Consider the compound COc1cccc(/C=C/C(=O)c2cc(OC)c(OC)cc2O)c1 and give its measured concentration at 1 h. 69

Every entry's value here was drawn from ChEMBL document CHEMBL3997782.
